# procedure.summary: Stability in human liver microsomes assessed as parent compound remaining after 10 mins
# Format: ADME, Microsome
# reported.conditions: liver microsomes, read-out: Stability
endpoint.name: remaining at 10 min (%)
Write it as a number; the unit % goes unstated.

Would you please look over these solved cases?
- compound.structure: "O=C([C@H]1CC[C@](F)(C(=O)O)CC1)N1CC[C@](c2ccc(C(F)(C(F)(F)F)C(F)(F)F)cc2)(S(=O)(=O)c2ccc(F)cc2)C1"
  remaining at 10 min (%): 100
- compound.structure: "O=C(N1CC[C@](c2ccc(C(F)(C(F)(F)F)C(F)(F)F)cc2)(S(=O)(=O)c2ccc(F)cc2)C1)C1(F)CCS(=O)(=O)CC1"
  remaining at 10 min (%): 100

input: Requested read-out: remaining at 10 min. Entry: O=C([C@H]1CC[C@H](c2nnn[nH]2)CC1)N1CC[C@](c2ccc(C(F)(C(F)(F)F)C(F)(F)F)cc2)(S(=O)(=O)c2ccc(F)cc2)C1
output: 100

input: Entry C[C@]1(C(=O)N2CC[C@](c3ccc(C(F)(C(F)(F)F)C(F)(F)F)cc3)(S(=O)(=O)c3ccc(F)cc3)C2)CC[C@@H](C(=O)O)CC1 has what remaining at 10 min?
output: 85

input: Entry under review: CC[C@]1(C(=O)O)CC[C@H](C(=O)N2CC[C@](c3ccc(C(F)(C(F)(F)F)C(F)(F)F)cc3)(S(=O)(=O)c3ccc(F)cc3)C2)CC1 . Reported remaining at 10 min?
output: 100

* * *

# procedure.summary: Stability in mouse liver microsomes assessed as parent compound remaining after 10 mins
# Type: ADME, Microsome
# reported.conditions: liver microsomes, read-out: Stability
remaining at 10 min under 90% gets met, anything at or over 90% gets not met.

Worked examples follow.
- molecule: "NC(=O)[C@H]1CC[C@H](C(=O)N2CC[C@](c3ccc(C(F)(C(F)(F)F)C(F)(F)F)cc3)(S(=O)(=O)c3ccc(F)cc3)C2)CC1"
  discrete.label: "not met"
- molecule: "CC[C@]1(C(=O)N2CC[C@](c3ccc(C(F)(C(F)(F)F)C(F)(F)F)cc3)(S(=O)(=O)c3ccc(F)cc3)C2)CC[C@H](C(=O)O)CC1"
  discrete.label: "met"
- molecule: "C[C@]1(C(=O)O)CC[C@H](C(=O)N2CC[C@](c3ccc(C(F)(C(F)(F)F)C(F)(F)F)cc3)(S(=O)(=O)c3ccc(F)cc3)C2)CC1"
  discrete.label: "not met"
- molecule: "O=C(O)[C@@H]1[C@@H]2C[C@@H](C(=O)N3CC[C@](c4ccc(C(F)(C(F)(F)F)C(F)(F)F)cc4)(S(=O)(=O)c4ccc(F)cc4)C3)C[C@@H]21"
  discrete.label: "met"

input: Does the reported remaining at 10 min of O=C1NC(=O)C2(CCC(C(=O)N3CC[C@](c4ccc(C(F)(C(F)(F)F)C(F)(F)F)cc4)(S(=O)(=O)c4ccc(F)cc4)C3)CC2)N1 (stereo in doubt; 24) stay below 90%?
output: met

input: Lab log: compare recorded remaining at 10 min with 90%; is it strictly lower for O=C([C@H]1CC[C@](F)(C(=O)O)CC1)N1CC[C@](c2ccc(C(F)(C(F)(F)F)C(F)(F)F)cc2)(S(=O)(=O)c2ccc(F)cc2)C1 ?
output: met

* * *

# procedure.summary: Half life in rat liver microsomes
# Assay type: ADME, Microsome
Listed here: items and their measured half-life.

- compound.structure: "CC[C@]1(C(=O)N2CC[C@](c3ccc(C(F)(C(F)(F)F)C(F)(F)F)cc3)(S(=O)(=O)c3ccc(F)cc3)C2)CC[C@H](C(=O)O)CC1"
  endpoint.name: "half-life"
  result: "> 120 min"

Please turn your attention to the following entry.
input: Need half-life, item O=C(O)C12CCC(C(=O)N3CC[C@](c4ccc(C(F)(C(F)(F)F)C(F)(F)F)cc4)(S(=O)(=O)c4ccc(F)cc4)C3)(CC1)CC2
output: > 120 min

* * *

# procedure.summary: Half life in mouse liver microsomes
# Type: ADME, Microsome
endpoint.name: half-life

- compound.structure: "O=C(O)C12CCC(C(=O)N3CC[C@](c4ccc(C(F)(C(F)(F)F)C(F)(F)F)cc4)(S(=O)(=O)c4ccc(F)cc4)C3)(CC1)CC2"
  endpoint.name: "half-life"
  result: "> 2 h"

input: Consider the compound CC[C@]1(C(=O)N2CC[C@](c3ccc(C(F)(C(F)(F)F)C(F)(F)F)cc3)(S(=O)(=O)c3ccc(F)cc3)C2)CC[C@H](C(=O)O)CC1 and give its measured half-life.
output: > 2 h

* * *

# procedure.summary: Half life in human liver microsomes
# Assay type: ADME, Microsome
endpoint.name: half-life

- compound.structure: "O=C(O)C12CCC(C(=O)N3CC[C@](c4ccc(C(F)(C(F)(F)F)C(F)(F)F)cc4)(S(=O)(=O)c4ccc(F)cc4)C3)(CC1)CC2"
  result: "> 2 h"

Kindly consider the entry below.
input: I would be grateful if you could share the reported half-life for CC[C@]1(C(=O)N2CC[C@](c3ccc(C(F)(C(F)(F)F)C(F)(F)F)cc3)(S(=O)(=O)c3ccc(F)cc3)C2)CC[C@H](C(=O)O)CC1 .
output: > 2 h

* * *

Overview of reported pEC50 across a group of compounds:
# tested.target: Nuclear receptor ROR-beta (Homo sapiens, UniProt Q92753)
# Sequence (Q92753 whole entry, the tested form may be a part): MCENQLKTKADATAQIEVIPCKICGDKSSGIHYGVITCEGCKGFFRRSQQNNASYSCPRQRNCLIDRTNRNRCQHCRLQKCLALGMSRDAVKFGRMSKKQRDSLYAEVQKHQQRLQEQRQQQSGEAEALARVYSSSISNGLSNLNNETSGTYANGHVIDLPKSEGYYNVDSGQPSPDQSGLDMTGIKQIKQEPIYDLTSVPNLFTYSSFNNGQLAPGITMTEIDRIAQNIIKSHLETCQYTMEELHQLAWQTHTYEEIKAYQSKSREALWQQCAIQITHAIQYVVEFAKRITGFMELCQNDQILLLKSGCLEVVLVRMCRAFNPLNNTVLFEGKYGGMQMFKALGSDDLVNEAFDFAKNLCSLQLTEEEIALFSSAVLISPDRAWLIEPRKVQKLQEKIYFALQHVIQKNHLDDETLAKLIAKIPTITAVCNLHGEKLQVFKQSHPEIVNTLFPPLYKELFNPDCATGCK
# procedure.summary: Inverse agonist activity at human Gal4-fused RORbeta LBD (200 to 559 residues) expressed in human Jurkat cells measured after 18 hrs by steady-glo luciferase reporter gene assay
# Format: cell-based
# reported.conditions: jurkat
pEC50: −log10 of the molar value.

Example compounds with recorded pEC50:
- compound: "O=C(O)C1CCC(O)(C(=O)N2CC[C@](c3ccc(C(F)(C(F)(F)F)C(F)(F)F)cc3)(S(=O)(=O)c3ccc(F)cc3)C2)CC1 (stereo in doubt; 13)"
  endpoint.name: "pEC50"
  result: "< 4.40"
- compound: "O=C1NC(=O)C2(CCC(C(=O)N3CC[C@](c4ccc(C(F)(C(F)(F)F)C(F)(F)F)cc4)(S(=O)(=O)c4ccc(F)cc4)C3)CC2)N1 (stereo in doubt; 25)"
  endpoint.name: "pEC50"
  result: "< 4.40"
- compound: "O=C(C1CCS(=O)(=O)C1)N1CC[C@](c2ccc(C(F)(C(F)(F)F)C(F)(F)F)cc2)(S(=O)(=O)c2ccc(F)cc2)C1 (stereo in doubt; 33)"
  endpoint.name: "pEC50"
  result: "< 4.40"

Here is another compound to look at.
input: State the recorded pEC50 for this entry: CS(=O)(=O)C1CCC(C(=O)N2CC[C@](c3ccc(C(F)(C(F)(F)F)C(F)(F)F)cc3)(S(=O)(=O)c3ccc(F)cc3)C2)CC1 (stereo in doubt; 29)
output: < 4.40

* * *

# tested.target: Cytochrome P450 2B6 (Homo sapiens, UniProt P20813)
# Sequence (P20813 whole entry): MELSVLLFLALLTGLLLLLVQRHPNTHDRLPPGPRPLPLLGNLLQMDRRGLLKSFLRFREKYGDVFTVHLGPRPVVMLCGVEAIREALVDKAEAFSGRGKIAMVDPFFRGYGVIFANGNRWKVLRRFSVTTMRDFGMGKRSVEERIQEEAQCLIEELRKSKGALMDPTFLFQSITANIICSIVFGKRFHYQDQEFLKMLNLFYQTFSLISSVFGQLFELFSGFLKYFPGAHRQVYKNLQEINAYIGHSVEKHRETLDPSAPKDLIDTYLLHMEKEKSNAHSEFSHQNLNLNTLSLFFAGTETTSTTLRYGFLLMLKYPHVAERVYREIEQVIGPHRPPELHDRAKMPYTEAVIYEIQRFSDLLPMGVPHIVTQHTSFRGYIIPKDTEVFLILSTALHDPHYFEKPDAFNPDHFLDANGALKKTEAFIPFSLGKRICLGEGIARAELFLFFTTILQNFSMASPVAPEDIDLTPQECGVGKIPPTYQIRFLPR
endpoint.name: IC50

input: What does the data say about its IC50? Entry: CC[C@]1(C(=O)N2CC[C@](c3ccc(C(F)(C(F)(F)F)C(F)(F)F)cc3)(S(=O)(=O)c3ccc(F)cc3)C2)CC[C@H](C(=O)O)CC1
output: > 10 µM

* * *

Each entry below carries its recorded EC50.
# tested.target: Oxysterols receptor LXR-beta (Homo sapiens, UniProt P55055)
# Sequence (P55055 whole entry): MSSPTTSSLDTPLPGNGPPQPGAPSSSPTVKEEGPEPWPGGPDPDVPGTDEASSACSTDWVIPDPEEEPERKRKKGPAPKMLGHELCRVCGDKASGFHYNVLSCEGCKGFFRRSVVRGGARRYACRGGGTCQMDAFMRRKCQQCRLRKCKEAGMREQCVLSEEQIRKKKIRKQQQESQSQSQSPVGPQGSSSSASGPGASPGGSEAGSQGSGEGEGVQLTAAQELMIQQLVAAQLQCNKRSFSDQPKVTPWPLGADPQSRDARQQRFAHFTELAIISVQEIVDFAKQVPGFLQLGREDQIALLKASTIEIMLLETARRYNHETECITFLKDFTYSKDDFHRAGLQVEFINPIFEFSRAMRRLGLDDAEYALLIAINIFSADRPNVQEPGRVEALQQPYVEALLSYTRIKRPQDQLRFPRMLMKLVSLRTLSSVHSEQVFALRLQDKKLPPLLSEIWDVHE
# procedure.summary: Transactivation of human GAL4-fused LXRbeta expressed in African green monkey CV1 cells

- compound.structure: "O=C(O)[C@@H]1[C@@H]2C[C@@H](C(=O)N3CC[C@](c4ccc(C(F)(C(F)(F)F)C(F)(F)F)cc4)(S(=O)(=O)c4ccc(F)cc4)C3)C[C@@H]21"
  EC50: "> 7.5 µM"
- compound.structure: "O=C([C@H]1CC[C@H](CO)CC1)N1CC[C@](c2ccc(C(F)(C(F)(F)F)C(F)(F)F)cc2)(S(=O)(=O)c2ccc(F)cc2)C1"
  EC50: "> 7.5 µM"

With those in mind, consider the next compound.
input: Which measured EC50 value corresponds to O=C([C@H]1CC[C@H](c2nnn[nH]2)CC1)N1CC[C@](c2ccc(C(F)(C(F)(F)F)C(F)(F)F)cc2)(S(=O)(=O)c2ccc(F)cc2)C1 ?
output: > 7.5 µM
